B1: DLC1 (parent)
chain: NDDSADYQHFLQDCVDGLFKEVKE

Variants of: B1
Test: protein stability index of a GFP-peptide fusion (GPS, HEK-293T) (PSI 1-6); higher = more stable;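 note: lentivirally expressed fusions sorted by FACS into six bins by GFP to DsRed ratio, PSI derived from sequencing read proportions per bin multiplied by bin number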
Settings: c terminus: a fixed tail appended
Measured Attribute: protein stability index
Could you keep your reply to the number by itself?

NDDSADYQHFLQDCVDGLFKEIKE : 2.58
NDDSADYQHFLQDFVDGLFKEVKE : 2.49
NDDSADYQHTLQDCVDGLFKEVKE : 2.47
NDDSADYQHFLHDCVDGLFKEVKE : 3.17
NDDSADYNHFLQDCVDGLFKEVKE : 3.03

Inquiry: Identify the reported protein stability index for the following entry. NDDSANYQHFLQDCVDGLFKEVKE
Reply text: 2.4

Inquiry: Identify the reported protein stability index for the following entry. NDDSADYQHFLQDWVDGLFKEVKE
Reply text: 4.31

Inquiry: Identify the reported protein stability index for the following entry. NDDWADYQHFLQDCVDGLFKEVKE
Reply text: 2.26

Inquiry: Identify the reported protein stability index for the following entry. NDDSADYQHFLQDCVDALFKEVKE
Reply text: 3.68

Inquiry: Identify the reported protein stability index for the following entry. NDDSADYQHFLQDCVLGLFKEVKE
Reply text: 2.12

Inquiry: Identify the reported protein stability index for the following entry. NDDSADYQHFLQDCVDGLFKEVNE
Reply text: 3.37

Inquiry: Identify the reported protein stability index for the following entry. NDDSADYQHFLQDCVDGLFKWVKE
Reply text: 2.28

Hey, just so you know, these numbers are from the supplement of paper PMC10567573.
